Target: T1, hAMY3R (human, UniProt P30988)
T1 sequence 1: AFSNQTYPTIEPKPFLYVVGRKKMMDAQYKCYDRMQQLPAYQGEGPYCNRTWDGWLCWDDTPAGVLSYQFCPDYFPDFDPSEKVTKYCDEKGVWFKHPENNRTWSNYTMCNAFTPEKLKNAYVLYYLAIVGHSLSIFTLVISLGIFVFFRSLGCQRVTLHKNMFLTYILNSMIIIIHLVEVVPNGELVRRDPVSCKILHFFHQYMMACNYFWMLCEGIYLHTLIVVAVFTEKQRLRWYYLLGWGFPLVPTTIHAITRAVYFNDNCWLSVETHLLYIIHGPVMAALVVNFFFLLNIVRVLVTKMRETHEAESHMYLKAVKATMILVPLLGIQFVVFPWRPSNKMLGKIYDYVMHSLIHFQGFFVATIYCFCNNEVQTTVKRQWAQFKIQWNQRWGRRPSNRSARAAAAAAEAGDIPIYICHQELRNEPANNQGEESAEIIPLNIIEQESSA
T1 sequence 2: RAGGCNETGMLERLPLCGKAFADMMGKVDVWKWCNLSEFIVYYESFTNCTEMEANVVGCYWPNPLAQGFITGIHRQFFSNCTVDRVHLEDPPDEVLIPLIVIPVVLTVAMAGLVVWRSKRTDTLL
Experiment: cell-based or functional assay
Numbered stars: 1 amine (or outer) side, 2 acyl side, 3 side chain; on linkers, the order of the positions; unused ones are H or OH. Bridge positions count the residues as written; N and C are the ends. Square brackets hold non-standard residues; d marks the D form. Ends that are not written are not given here. * marks the point of attachment. C20 diacid = O=C(O)CCCCCCCCCCCCCCCCCCC(=O)*; γGlu = O=C(O)[C@H](CCC(=O)[*:2])N[*:1]; Hyp = O=C(O)[C@@H]1C[C@@H](O)CN1; Cit = NC(=O)NCCC[C@H](N)C(=O)O
readout name: hAMY3R EC50 (cAMP) (pM)

binder	readout name	recorded value
KCNTATCTVQRLAHQIYQATDKDKDNVAPPTNVGSNG[Hyp]-NH2 (disulfide 2-7 (inferred); ends not checked) [SEQ ID NO: 114]	hAMY3R EC50 (cAMP)	22
GCRFGTCTVQ[Cit]LAHQIYQFTDKDKDNVAPRSKVSPQG[Hyp]-NH2 (disulfide 2-7 (inferred); ends not checked) [SEQ ID NO: 305]	hAMY3R EC50 (cAMP)	85
{C20 diacid-γGlu}-KCNTATCTVQRLAEQIYQFTAKDKDNVAPPTNVGSNG[Hyp]-NH2 (disulfide 2-7 (inferred); ends not checked) [SEQ ID NO: 106]	hAMY3R EC50 (cAMP)	18
GCRIGTCTVQRLAHQIYQFTDKFKDNVAPRSKISPQT[Hyp]-NH2 (disulfide 2-7 (inferred); ends not checked) [SEQ ID NO: 147]	hAMY3R EC50 (cAMP)	40
KCNTATCTVQ[Cit]LAHQIYQFADKDKDNVAPPTNVGSNG[Hyp]-NH2 (disulfide 2-7 (inferred); ends not checked) [SEQ ID NO: 249]	hAMY3R EC50 (cAMP)	6
GCRTGTCTVQRLAHQIYQFTDKFKDNVAPRSKISPQTP [SEQ ID NO: 235]	hAMY3R EC50 (cAMP)	233
GCRFGTCTVQRLAHQIYQFTDKDKDNVAPRTKISPQG[Hyp]-NH2 (disulfide 2-7 (inferred); ends not checked) [SEQ ID NO: 146]	hAMY3R EC50 (cAMP)	40
KCNTATCTVQRLAHQIYQFTDKDKDNAAPPTNVGSNG[Hyp]-NH2 (disulfide 2-7 (inferred); ends not checked) [SEQ ID NO: 27]	hAMY3R EC50 (cAMP)	8
{C20 diacid-γGlu}-KCNTATCTVQRLAHQIAQFTDKNKDNVAPPTNVGSNG[Hyp]-NH2 (disulfide 2-7 (inferred); not fully specified; ends not checked) [SEQ ID NO: 87]	hAMY3R EC50 (cAMP)	15
RCNASTCTVN[Cit]LADQITQFSNKDKAQVSPPTEVGPNS[Hyp]-NH2 (disulfide 2-7 (inferred); ends not checked) [SEQ ID NO: 245]	hAMY3R EC50 (cAMP)	17
{C20 diacid-γGlu}-GCRFGTCTVQRLAHFLYQFTDKDKDNVAPRTNVGSNTY-NH2 (disulfide 2-7 (inferred); ends not checked) [SEQ ID NO: 208]	hAMY3R EC50 (cAMP)	133
GCRFATCTVQRLAHFLYQFTDKDKDNVAPRTKVGPQGY [SEQ ID NO: 377]	hAMY3R EC50 (cAMP)	24
GCRTGTCTVQRLAHQIYQFTDKDKDNVAPRTNISPNG[Hyp]-NH2 (disulfide 2-7 (inferred); ends not checked) [SEQ ID NO: 170]	hAMY3R EC50 (cAMP)	64
KCNTATCATQRLANFLVHSSNNFGAILPSTKIGSNTY [SEQ ID NO: 180]	hAMY3R EC50 (cAMP)	82
GCRTGTCTVQRLAHQIYQFTDKDKDNVAPRSKIGPQG[Hyp]-NH2 (disulfide 2-7 (inferred); ends not checked) [SEQ ID NO: 179]	hAMY3R EC50 (cAMP)	82
RCNASTCTVNRLADQITQFSNKDKAQVSPPTEVGPNS[Hyp]-NH2 (disulfide 2-7 (inferred); ends not checked) [SEQ ID NO: 9]	hAMY3R EC50 (cAMP)	6
GCRTGTCTVQ[Cit]LAHQIYQFTDKDKDNVAPRSNIGPNG[Hyp]-NH2 (disulfide 2-7 (inferred); ends not checked) [SEQ ID NO: 297]	hAMY3R EC50 (cAMP)	26
{C20 diacid-γGlu}-GCRFGTCTVQRLAHFLYQFTDKDKDNVAPRTKIGPQGY-NH2 (disulfide 2-7 (inferred); ends not checked) [SEQ ID NO: 390]	hAMY3R EC50 (cAMP)	48
